# Tested on: Abutilon theophrasti
# assayOverview: Pre-emergence herbicidal activity, glasshouse pot test
# Assay type: in vivo
# experimentalConditions: pre-emergence spray, rate 1000 g/ha, evaluated after 13 days, scale 0-5
# Procedure: Seeds of a variety of test species were sown in standard soil in pots. […] After 13 days, the test was evaluated (5=total damage to plant; 0=no damage to plant). […]
measuredAttribute: ABUTH damage score, application pre-emergence

compound	valueReported
COC1=C(OC)C(O)N(c2cc(C(F)(F)F)c(C(F)(F)F)cn2)C1=O (stereo not drawn) [AK4]	1
C/C=C/c1cc(N2C(=O)C(Cl)=C(C)C2O)ncn1 (stereo not drawn) [CF6]	0
COC1=C(C)C(O)N(c2cc(C(C)C)c(Cl)nn2)C1=O (stereo not drawn) [BI28]	4
CC1=C(Cl)C(=O)N(c2cc(C(F)(F)Cl)ccn2)C1O (stereo not drawn) [AF98]	1
COC1=C(C)C(O)N(c2cc(C)c(Br)cn2)C1=O (stereo not drawn) [AI32]	0
COC1=C(OC)C(O)N(c2cc(Cl)c(Cl)cn2)C1=O (stereo not drawn) [AK7]	2
COC1=C(C)C(O)N(c2cc(C(F)(F)F)ccn2)C1=O (stereo not drawn) [AI1]	5
C#CCNC(=O)c1cnc(N2C(=O)C(OC)=C(C)C2O)cc1C(F)(F)F (stereo not drawn) [AI10]	5
COC1=C(OC)C(O)N(c2cc(Br)ccn2)C1=O (stereo not drawn) [AK5]	0
COC1=C(OC)C(O)N(c2cc(C(F)(F)F)ccn2)C1=O (stereo not drawn) [AK8]	5
CC1=C(Cl)C(=O)N(c2cc(C(F)F)ccn2)C1O (stereo not drawn) [AF34]	5
COC1=C(C)C(O)N(c2cc(C(C)C)c(C(=O)NC(C)(C)C)cn2)C1=O (stereo not drawn) [AI30]	5
COC1=C(C)C(O)N(c2cc(N(C)C)ncn2)C1=O (stereo not drawn) [CI9]	2
COC1=C(C)C(O)N(c2ccc(C(=O)NC(C)(C)C)cn2)C1=O (stereo not drawn) [AI24]	4
CC1=C(Cl)C(=O)N(c2cc(C)c(-c3ccsc3)cn2)C1O (stereo not drawn) [AF104]	1
CC1=C(Cl)C(=O)N(c2cc([S+](C)[O-])ccn2)C1O (stereo not drawn) [AF51]	0
CCOC(=O)c1ccc(N2C(=O)C(OC)=C(C)C2O)nn1 (stereo not drawn) [BI4]	0
COC1=C(C)C(O)N(c2cc(OC(F)(F)F)ccn2)C1=O (stereo not drawn) [AI3]	4
C=C(OCC)c1nnc(N2C(=O)C(OC)=C(C)C2O)cc1C(C)(F)F (stereo not drawn) [BI19]	5
COC1=C(OC)C(O)N(c2cc(OC)ccn2)C1=O (stereo not drawn) [AK6]	0
COC1=C(C)C(O)N(c2cc(C(C)(C)C)c(-c3ccc(F)nc3)nn2)C1=O (stereo not drawn) [BI30]	5
